# credit: patent US4703048A

# Tested on: vertebral blood flow
# experimental-protocol: Activity of increasing cerebral blood flow (vertebral blood flow), intravenous administration in anesthetized dogs
# Format: in vivo
# measurement-context: Canis lupus familiaris; 0.03 to 0.3 mg/kg intravenous, anesthetized mongrel dogs; calculated from the regression line; read-out: VBF-ED50 (dose which increased the cerebral blood flow by 50%)
measured-endpoint: ED50 (mg/kg)
Reply numerically in mg/kg, unit not repeated.

Q: Recorded ED50 for COc1ccc(C=CCN2CCN(C(c3ccc(F)cc3)c3ccc(F)cc3)CC2)c(OC)c1OC.Cl.Cl [Compound A] , please?
A: 0.06

Q: Item under review: COc1ccc(C=CCN2CCN(C(c3ccccc3)c3ccccc3)CC2)c(OC)c1.O=C(O)/C=C/C(=O)O [D] . Reported ED50?
A: 0.18

Q: Returns the measured ED50 for the input compound. Input: COc1ccc(C=CCN2CCN(C(c3ccccc3)c3ccccc3)CC2)c(OC)c1OC.Cl.Cl [B]
A: 0.12

Further cases:
Q: Given the compound COc1ccc(C=CCN2CCN(C(c3ccc(F)cc3)c3ccc(F)cc3)CC2)c(OC)c1.O=C(O)/C=C/C(=O)O [C] , what is its reported ED50?
A: 0.08

----------
# maps each entry to its Increase (%) in vertebral blood flow (mean ± standard error)
# System: vertebral blood flow
# experimental-protocol: Activity of increasing cerebral blood flow (vertebral blood flow), intravenous administration in anesthetized dogs
# Format: in vivo
# measurement-context: 20 minutes after administration; 0.3 mg/kg, injected into femoral vein, anesthetized mongrel dogs
Counter-ions that a name gives are not always drawn.
Respond with the bare value in %.

In the examples that follow, each entry is paired with its recorded Increase (%) in vertebral blood flow (mean ± standard error).
Q: Consider the molecule COc1ccc(C=CCN2CCN(C(c3ccccc3)c3ccccc3)CC2)c(OC)c1OC.Cl.Cl and give its measured Increase (%) in vertebral blood flow (mean ± standard error).
A: 26

Q: # input molecule: COc1ccc(C=CCN2CCN(C(c3ccccc3)c3ccccc3)CC2)c(OC)c1.O=C(O)/C=C/C(=O)O ; wanted: its Increase (%) in vertebral blood flow (mean ± standard error)
A: 18

Q: What value of measured Increase (%) in vertebral blood flow (mean ± standard error) is listed for Fc1ccc(C(c2ccc(F)cc2)N2CCN(CC=Cc3ccccc3)CC2)cc1 [Flunarizine dihydrochloride, reference compound] ?
A: 10

Q: Please look up its Increase (%) in vertebral blood flow (mean ± standard error): C(=Cc1ccccc1)CN1CCN(C(c2ccccc2)c2ccccc2)CC1 [Cinnarizine, reference compound]
A: 2

Q: Look up Increase (%) in vertebral blood flow (mean ± standard error) for this molecule: COc1ccc(C=CCN2CCN(C(c3ccc(F)cc3)c3ccc(F)cc3)CC2)c(OC)c1.O=C(O)/C=C/C(=O)O
A: 50

// moving on: another record for Increase (%) in vertebral blood flow (mean ± standard error)
Q: Dear colleague, I am looking for the recorded Increase (%) in vertebral blood flow (mean ± standard error) of the following molecule: COc1ccc(C=CCN2CCN(C(c3ccc(F)cc3)c3ccc(F)cc3)CC2)c(OC)c1OC.Cl.Cl
A: 120
